- assayed.target: T1, human CCR8 (human, UniProt P51685 1-355)
- T1 construct: the cells are named under assay; also called hCCR8
- assay.notes: flow cytometry, hCCR8 transfected CHOK1 cells
experimental.readout: MFI fold change to isotype ctrl (fold)
Number only, in fold; omit the unit.

binder="3-52 (antibody, V domains shown) VH: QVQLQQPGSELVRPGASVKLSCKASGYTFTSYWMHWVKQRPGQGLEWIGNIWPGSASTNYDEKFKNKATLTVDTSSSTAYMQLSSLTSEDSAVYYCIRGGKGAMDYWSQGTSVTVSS VL: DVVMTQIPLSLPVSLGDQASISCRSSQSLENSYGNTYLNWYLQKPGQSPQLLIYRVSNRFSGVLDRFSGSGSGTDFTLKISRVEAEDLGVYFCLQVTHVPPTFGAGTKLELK" experimental_readout="MFI fold change to isotype ctrl" unit_text=fold meas_value=9.92
binder="3-5 (antibody, V domains shown) VH: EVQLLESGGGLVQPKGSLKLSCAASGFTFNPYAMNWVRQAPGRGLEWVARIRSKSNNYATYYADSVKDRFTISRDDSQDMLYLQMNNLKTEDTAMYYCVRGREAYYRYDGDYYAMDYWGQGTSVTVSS VL: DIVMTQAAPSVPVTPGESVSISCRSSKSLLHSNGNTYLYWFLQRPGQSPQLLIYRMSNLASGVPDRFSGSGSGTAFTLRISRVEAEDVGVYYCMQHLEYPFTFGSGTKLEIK" experimental_readout="MFI fold change to isotype ctrl" unit_text=fold meas_value=6.32
binder="3-1 (antibody, V domains shown) VH: EVQLVETGGGLVQPKGSLKVSCAASGFTFNTNAMNWVRQAPGKGLEWVARIRSKSNNYATYYADSVKDRFIISRDDSQSMLYLQMNNLKTEDTAMYYCVRGGYYGTSVYFDVWGAGTTVTVSS VL: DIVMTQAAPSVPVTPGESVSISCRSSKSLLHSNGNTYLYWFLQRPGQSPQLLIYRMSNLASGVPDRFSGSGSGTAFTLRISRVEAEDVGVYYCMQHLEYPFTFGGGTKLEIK" experimental_readout="MFI fold change to isotype ctrl" unit_text=fold meas_value=2.61
binder="3-50 (antibody, V domains shown) VH: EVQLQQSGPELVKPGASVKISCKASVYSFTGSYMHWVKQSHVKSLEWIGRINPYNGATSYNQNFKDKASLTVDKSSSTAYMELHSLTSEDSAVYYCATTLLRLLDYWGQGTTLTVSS VL: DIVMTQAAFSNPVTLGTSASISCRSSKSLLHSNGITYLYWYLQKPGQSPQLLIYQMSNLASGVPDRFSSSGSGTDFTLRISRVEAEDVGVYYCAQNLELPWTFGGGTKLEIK" experimental_readout="MFI fold change to isotype ctrl" unit_text=fold meas_value=2.34
binder="3-28 (antibody, V domains shown) VH: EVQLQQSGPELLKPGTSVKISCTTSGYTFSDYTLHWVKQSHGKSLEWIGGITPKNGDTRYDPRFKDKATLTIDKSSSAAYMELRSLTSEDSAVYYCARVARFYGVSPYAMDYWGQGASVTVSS VL: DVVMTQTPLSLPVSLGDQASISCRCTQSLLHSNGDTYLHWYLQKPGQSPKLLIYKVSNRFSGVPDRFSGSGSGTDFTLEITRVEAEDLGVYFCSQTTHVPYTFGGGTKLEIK" experimental_readout="MFI fold change to isotype ctrl" unit_text=fold meas_value=10.7

// next entry
Ref #1 (antibody, human IgG1, V domains shown, benchmark from WO 2021/260210; human IgG1, produced in CHO; also called TPP-21360) VH: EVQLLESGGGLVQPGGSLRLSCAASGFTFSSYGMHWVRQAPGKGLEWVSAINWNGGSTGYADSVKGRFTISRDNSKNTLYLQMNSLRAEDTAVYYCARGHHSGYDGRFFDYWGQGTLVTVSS VL: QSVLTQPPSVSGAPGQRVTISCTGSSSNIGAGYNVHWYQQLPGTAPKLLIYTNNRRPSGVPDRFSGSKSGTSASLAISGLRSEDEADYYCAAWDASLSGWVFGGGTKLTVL yielded MFI fold change to isotype ctrl of 8.7
